// data source = the supplement of paper PMC10126150

System: ATP;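 note: ATP exposure 15 min at 22 °C before imaging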
Assay: switch fluorescence ratio, 500 uM ATP over buffer (Cy3 cluster intensity, sum of 5 cycles each) (fold (ratio)); higher = stronger signal-on switching upon ATP binding; sequences stand for … in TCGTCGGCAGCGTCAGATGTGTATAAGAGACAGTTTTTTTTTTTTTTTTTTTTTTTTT…TC
Conditions: aptamer strand: ATP DNA aptamer (quencher-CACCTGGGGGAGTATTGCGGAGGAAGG + anchor), 100 nM annealed; ATP concentration: 500 uM
Tick fulfilled if switch fluorescence ratio is 1 or greater. Tick not fulfilled if switch fluorescence ratio is less than 1.

| SEQUENCE_RECORD | SYSTEM_UNDER_TEST | GROUP |
| --- | --- | --- |
| TTTCTGGTGC | ATP | fulfilled |

hey, is switch fluorescence ratio for this one >= 1? ATAATTAATT
not fulfilled

hey, is switch fluorescence ratio for this one >= 1? TGTGTTAAAT
fulfilled

hey, is switch fluorescence ratio for this one >= 1? CCGGTATTGT
fulfilled

hey, is switch fluorescence ratio for this one >= 1? ATAAGTCACG
fulfilled

* * *

I'd be grateful if you could share measured switch fluorescence ratio for these entries.
Tested on: ATP;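 note: ATP exposure 15 min at 22 °C before imaging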
Assay: switch fluorescence ratio, 500 uM ATP over buffer (Cy3 cluster intensity, sum of 5 cycles each) (fold (ratio)); higher = stronger signal-on switching upon ATP binding; sequences stand for … in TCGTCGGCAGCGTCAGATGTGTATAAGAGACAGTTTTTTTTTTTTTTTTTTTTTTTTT…TC
Details: aptamer strand: ATP DNA aptamer (quencher-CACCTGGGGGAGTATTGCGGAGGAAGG + anchor), 100 nM annealed; ATP concentration: 500 uM
One number for each entry.

Consider the worked cases shown below.
| SEQUENCE_RECORD | SYSTEM_UNDER_TEST | QUANTITY_NAME | RECORDED_RESULT |
| --- | --- | --- | --- |
| AATTCGTCGG | ATP | switch fluorescence ratio | 1.02 |
| AGCTGCAGTG | ATP | switch fluorescence ratio | 1.02 |

Lab note: each sequence below needs its switch fluorescence ratio filled in.
1. TTTAGGTTAA
2. TCCAAGGGAT
3. GTGTAATGAG
4. ATTGGTAACG
5. GGATGCGGCC

0.975
1.01
0.964
0.998
0.992

* * *

I'd be grateful if you could share measured switch fluorescence ratio for these entries.
System: ATP;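 note: ATP exposure 15 min at 22 °C before imaging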
Experiment: switch fluorescence ratio, 500 uM ATP over buffer (Cy3 cluster intensity, sum of 5 cycles each) (fold (ratio)); higher = stronger signal-on switching upon ATP binding; sequences stand for … in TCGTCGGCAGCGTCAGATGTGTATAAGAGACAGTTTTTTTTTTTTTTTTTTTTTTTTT…TC
Conditions: aptamer strand: ATP DNA aptamer (quencher-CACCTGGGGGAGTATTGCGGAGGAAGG + anchor), 100 nM annealed; ATP concentration: 500 uM
Numbers only.

Consider the worked cases shown below.
| SEQUENCE_RECORD | SYSTEM_UNDER_TEST | switch fluorescence ratio |
| --- | --- | --- |
| TTTGCACATT | ATP | 1.02 |
| TCAAAAGGGA | ATP | 1.02 |
| GTAAAATTGG | ATP | 0.998 |
| GCTGGAGTAT | ATP | 0.987 |
| GTCCTTTTTT | ATP | 0.97 |

Lab note: each sequence below needs its switch fluorescence ratio filled in.
1. CGTGCGTGTA
2. GAGACGACCA
3. TCATGGATAG
4. TTTTTTTGTG

1.02
1.15
1.01
0.984

Lab note: each sequence below needs its switch fluorescence ratio filled in.
1. GGGGGATTAC
2. AGTGGACATC

1. 1.06
2. 0.991

Lab note: each sequence below needs its switch fluorescence ratio filled in.
1. TTACCATCCT
2. GTGGGGTAAG
3. AGGAGGTGGC
4. AAAGGGCTGC
5. GCTTATAGGC

1.19
0.987
1.03
1.02
0.97

* * *

Tested on: ATP;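 note: ATP exposure 15 min at 22 °C before imaging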
Experiment: switch fluorescence ratio, 500 uM ATP over buffer (Cy3 cluster intensity, sum of 5 cycles each) (fold (ratio)); higher = stronger signal-on switching upon ATP binding; sequences stand for … in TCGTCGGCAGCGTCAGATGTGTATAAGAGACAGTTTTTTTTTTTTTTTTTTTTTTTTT…TC
Conditions: aptamer strand: ATP DNA aptamer (quencher-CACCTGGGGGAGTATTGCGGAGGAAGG + anchor), 100 nM annealed; ATP concentration: 500 uM
QUANTITY_NAME: switch fluorescence ratio
Numbers only.

| SEQUENCE_RECORD | SYSTEM_UNDER_TEST | switch fluorescence ratio |
| --- | --- | --- |
| CTCGATTGTA | ATP | 0.999 |
| GGGAAAAAAC | ATP | 1.01 |
| AACAGTTTTT | ATP | 0.989 |

Lab note: each sequence below needs its switch fluorescence ratio filled in.
1. GTTTTTCGT
2. ATTTTGGGTT
3. GTTTTGGAGG

[1, 1, 0.969]

Lab note: each sequence below needs its switch fluorescence ratio filled in.
1. TGTTGTATGC
2. TTTGAAGGGT
3. TATTAATGTG
4. TGTGGGTAAA

1: 0.962; 2: 1.02; 3: 0.974; 4: 1.01

Lab note: each sequence below needs its switch fluorescence ratio filled in.
1. GGAATTGTCC
2. GCGGTAGGG
3. GGGACTAGTT

1: 1.44; 2: 1.02; 3: 0.959

Lab note: each sequence below needs its switch fluorescence ratio filled in.
1. TCCATGTATC
2. TCAGGACGGC
3. TAGAATTACT

[0.984, 0.99, 1.05]

Lab note: each sequence below needs its switch fluorescence ratio filled in.
1. TTATGTGGGG
2. ACTAGTGTCA
3. GGGTTAGCTT
4. GGTGTTTGTT

1: 0.993; 2: 1; 3: 0.98; 4: 0.956

Lab note: each sequence below needs its switch fluorescence ratio filled in.
1. CGGGGTGTCT
2. AGTAGGGGTA
3. GTATAATTCA

[1.02, 0.974, 0.975]

Lab note: each sequence below needs its switch fluorescence ratio filled in.
1. CGTTAATCTT
2. GGTGAGAAGT
3. TAGATGGGGA
4. TAAAAAAACG

1. 0.995
2. 1.01
3. 0.977
4. 1.1

State its switch fluorescence ratio for this sequence: TCTAGTGGCA
0.98

* * *

System: ATP;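 note: ATP exposure 15 min at 22 °C before imaging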
Assay: switch fluorescence ratio, 500 uM ATP over buffer (Cy3 cluster intensity, sum of 5 cycles each) (fold (ratio)); higher = stronger signal-on switching upon ATP binding; sequences stand for … in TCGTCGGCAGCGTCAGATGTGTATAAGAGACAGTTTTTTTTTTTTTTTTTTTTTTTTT…TC
Details: aptamer strand: ATP DNA aptamer (quencher-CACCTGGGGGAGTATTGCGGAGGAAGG + anchor), 100 nM annealed; ATP concentration: 500 uM
QUANTITY_NAME: switch fluorescence ratio
Answers are plain numbers.

Consider the worked cases shown below.
| SEQUENCE_RECORD | QUANTITY_NAME | RECORDED_RESULT |
| --- | --- | --- |
| TTTTAAACTT | switch fluorescence ratio | 1.09 |
| TGGGAAATAC | switch fluorescence ratio | 2.11 |
| TCGGGGGTCA | switch fluorescence ratio | 0.978 |
| TAACGGACGT | switch fluorescence ratio | 1.01 |
| GTTAAAGGGT | switch fluorescence ratio | 1.01 |
| GATACTGTAG | switch fluorescence ratio | 1.09 |
| CGGAACGCTC | switch fluorescence ratio | 1.71 |
| ATTTTAGAAT | switch fluorescence ratio | 1.02 |
| GCCCGCCACA | switch fluorescence ratio | 1.06 |
| CAGGTTGGTT | switch fluorescence ratio | 1 |

Lab note: each sequence below needs its switch fluorescence ratio filled in.
1. AGATAGGG
2. CTGGGGGCAG
3. TATAAGGATG
4. TTTGCACAGT
5. AGATATCATG

[0.962, 1.04, 0.993, 1.01, 0.973]

* * *

Test system: ATP;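 note: ATP exposure 15 min at 22 °C before imaging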
Assay: switch fluorescence ratio, 500 uM ATP over buffer (Cy3 cluster intensity, sum of 5 cycles each) (fold (ratio)); higher = stronger signal-on switching upon ATP binding; sequences stand for … in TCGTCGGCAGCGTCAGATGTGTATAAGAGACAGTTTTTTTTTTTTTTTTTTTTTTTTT…TC
Conditions: aptamer strand: ATP DNA aptamer (quencher-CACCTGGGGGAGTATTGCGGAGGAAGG + anchor), 100 nM annealed; ATP concentration: 500 uM
I'd be grateful if you could share measured switch fluorescence ratio for these entries.
Numbers only.

Consider the worked cases shown below.
| SEQUENCE_RECORD | SYSTEM_UNDER_TEST | switch fluorescence ratio |
| --- | --- | --- |
| AGAGGTAAGG | ATP | 0.983 |
| AAATCGGTGT | ATP | 1 |
| GTGTTATATT | ATP | 1 |

Lab note: each sequence below needs its switch fluorescence ratio filled in.
1. GGGGTGTGGG
2. GCATGGGGAT

[1, 1.02]
